total protein half-life in vivo for assorted sequences
Assay: total protein half-life in vivo (active degradation + dilution); higher = more stable protein
Settings: wild type E. coli NCM3722; growth: N-lim chemostat; doubling time 6 h
// units = h; emit number, no label

>>> reported("MTMTRLKISKTLLAVMLTSAVATGSAYAENNAQTTNESAGQKVDSSMNKVGNFMDDSAITAKVKAALVDHDNIKSTDISVKTDQKVVTLSGFVESQAQAEEAVKVAKGVEGVTSVSDKLHVRDAKEGSVKGYAGDTATTSEIKAKLLADDIVPSRHVKVETTDGVVQLSGTVDSQAQSDRAESIAKAVDGVKSVKNDLKTK [P0AFH8]")
5.5
>>> reported("MIREAQRSELPAILELWLESTTWGHPFIKANYWRDCIPLVRDAYLANAQNWVWEEDGKLLGFVSIMEGRFLAAMFVAPKAVRRGIGKALMQYVQQRHPHLMLEVYQKNQPAINFYQAQGFHIVDCAWQDETQLPTWIMSWPVVQTL")
2.33

Now take the following sequence into account.
Q. Can you share its total protein half-life in vivo? I mean this sequence: MEFFKKTALAALVMGFSGAALALPNITILATGGTIAGGGDSATKSNYTVGKVGVENLVNAVPQLKDIANVKGEQVVNIGSQDMNDNVWLTLAKKINTDCDKTDGFVITHGTDTMEETAYFLDLTVKCDKPVVMVGAMRPSTSMSADGPFNLYNAVVTAADKASANRGVLVVMNDTVLDGRDVTKTNTTDVATFKSVNYGPLGYIHNGKIDYQRTPARKHTSDTPFDVSKLNELPKVGIVYNYANASDLPAKALVDAGYDGIVSAGVGNGNLYKSVFDTLATAAKTGTAVVRSSRVPTGATTQDAEVDDAKYGFVASGTLNPQKARVLLQLALTQTKDPQQIQQIFNQY
A. 6.03

* * *

Assay: total protein half-life in vivo (active degradation + dilution); higher = more stable protein
Details: wild type E. coli NCM3722; growth: P-lim chemostat; doubling time 6 h
READOUT_NAME: total protein half-life in vivo (h)
// units = h; emit number, no label

Q. Can you share its total protein half-life in vivo? I mean this sequence: MTVRVAINGFGRIGRNVVRALYESGRRAEITVVAINELADAAGMAHLLKYDTSHGRFAWEVRQERDQLFVGDDAIRVLHERSLQSLPWRELGVDVVLDCTGVYGSREHGEAHIAAGAKKVLFSHPGSNDLDATVVYGVNQDQLRAEHRIVSNASCTTNCIIPVIKLLDDAYGIESGTVTTIHSAMHDQQVIDAYHPDLRRTRAASQSIIPVDTKLAAGITRFFPQFNDRFEAIAVRVPTINVTAIDLSVTVKKPVKANEVNLLLQKAAQGAFHGIVDYTELPLVSVDFNHDPHSAIVDGTQTRVSGAHLIKTLVWCDNEWGFANRMLDTTLAMATVAFR [P0A9B6]
A. 5.48

* * *

Assay: total protein half-life in vivo (active degradation + dilution); higher = more stable protein
Conditions: E. coli NCM3722 delta-hslV; growth: N-lim chemostat; doubling time 6 h
total protein half-life in vivo for assorted sequences
// units = h; emit number, no label

Reference set (8 entries):
>>> reported("MENQPKLNSSKEVIAFLAERFPHCFSAEGEARPLKIGIFQDLVDRVAGEMNLSKTQLRSALRLYTSSWRYLYGVKPGATRVDLDGNPCGELDEQHVEHARKQLEEAKARVQAQRAEQQAKKREAAATAGEKEDAPRRERKPRPTTPRRKEGAERKPRAQKPVEKAPKTVKAPREEQHTPVSDISALTVGQALKVKAGQNAMDATVLEITKDGVRVQLNSGMSLIVRAEHLVF")
3.47
>>> reported("MMKTMRIAAIPGDGIGKEVLPEGIRVLQAAAERWGFALSFEQMEWASCEYYSHHGKMMPDDWHEQLSRFDAIYFGAVGWPDTVPDHISLWGSLLKFRREFDQYVNLRPVRLFPGVPCPLAGKQPGDIDFYVVRENTEGEYSSLGGRVNEGTEHEVVIQESVFTRRGVDRILRYAFELAQSRPRKTLTSATKSNGLAISMPYWDERVEAMAENYPEIRWDKQHIDILCARFVMQPERFDVVVASNLFGDILSDLGPACTGTIGIAPSANLNPERTFPSLFEPVHGSAPDIYGKNIANPIATIWAGAMMLDFLGNGDERFQQAHNGILAAIEEVIAHGPKTPDMKGNATTPQVADAICKIILR")
2.66
>>> reported("MSHLDNGFRSLTLQRFPATDDVNPLQAWEAADEYLLQQLDDTEIRGPVLILNDAFGALSCALAEHKPYSIGDSYISELATRENLRLNGIDESSVKFLDSTADYPQQPGVVLIKVPKTLALLEQQLRALRKVVTSDTRIIAGAKARDIHTSTLELFEKVLGPTTTTLAWKKARLINCTFNEPQLADAPQTVSWKLEGTDWTIHNHANVFSRTGLDIGARFFMQHLPENLEGEIVDLGCGNGVIGLTLLDKNPQAKVVFVDESPMAVASSRLNVETNMPEALDRCEFMINNALSGVEPFRFNAVLCNPPFHQQHALTDNVAWEMFHHARRCLKINGELYIVANRHLDYFHKLKKIFGNCTTIATNNKFVVLKAVKLGRRR")
5.29
>>> reported("MHGNSEMQKINQTSAMPEKTDVHWSGRFSVAPMLDWTDRHCRYFLRLLSRNTLLYTEMVTTGAIIHGKGDYLAYSEEEHPVALQLGGSDPAALAQCAKLAEARGYDEINLNVGCPSDRVQNGMFGACLMGNAQLVADCVKAMRDVVSIPVTVKTRIGIDDQDSYEFLCDFINTVSGKGECEMFIIHARKAWLSGLSPKENREIPPLDYPRVYQLKRDFPHLTMSINGGIKSLEEAKAHLQHMDGVMVGREAYQNPGILAAVDREIFGSSDTDADPVAVVRAMYPYIERELSQGTYLGHITRHMLGLFQGIPGARQWRRYLSENAHKAGADINVLEHALKLVADKR")
4.51
>>> reported("MKTPLVTREGYEKLKQELNYLWREERPEVTKKVTWAASLGDRSENADYQYNKKRLREIDRRVRYLTKCLENLKIVDYSPQQEGKVFFGAWVEIENDDGVTHRFRIVGYDEIFGRKDYISIDSPMARALLKKEVGDLAVVNTPAGEASWYVNAIEYVKP")
3.36
>>> reported("MPQSALFTGIIPPVSTIFTADGQLDKPGTAALIDDLIKAGVDGLFFLGSGGEFSQLGAEERKAIARFAIDHVDRRVPVLIGTGGTNARETIELSQHAQQAGADGIVVINPYYWKVSEANLIRYFEQVADSVTLPVMLYNFPALTGQDLTPALVKTLADSRSNIIGIKDTIDSVAHLRSMIHTVKGAHPHFTVLCGYDDHLFNTLLLGGDGAISASGNFAPQVSVNLLKAWRDGDVAKAAGYHQTLLQIPQMYQLDTPFVNVIKEAIVLCGRPVSTHVLPPASPLDEPRKAQLKTLLQQLKLC")
3.07
>>> reported("MRIGHGFDVHAFGGEGPIIIGGVRIPYEKGLLAHSDGDVALHALTDALLGAAALGDIGKLFPDTDPAFKGADSRELLREAWRRIQAKGYTLGNVDVTIIAQAPKMLPHIPQMRVFIAEDLGCHMDDVNVKATTTEKLGFTGRGEGIACEAVALLIKATK")
4.88
>>> reported("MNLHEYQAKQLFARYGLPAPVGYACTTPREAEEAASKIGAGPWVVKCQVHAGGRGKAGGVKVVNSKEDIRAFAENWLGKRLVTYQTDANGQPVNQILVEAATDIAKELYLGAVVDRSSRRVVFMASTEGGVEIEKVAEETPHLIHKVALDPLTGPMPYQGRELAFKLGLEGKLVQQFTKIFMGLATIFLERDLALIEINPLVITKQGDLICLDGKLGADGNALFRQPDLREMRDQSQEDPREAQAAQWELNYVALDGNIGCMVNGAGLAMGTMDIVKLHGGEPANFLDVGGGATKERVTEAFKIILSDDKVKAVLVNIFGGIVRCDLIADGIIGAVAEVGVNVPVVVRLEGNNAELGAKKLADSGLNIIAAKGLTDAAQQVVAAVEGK [P0A836]")
4.45

Q. Can you share its total protein half-life in vivo? I mean this sequence: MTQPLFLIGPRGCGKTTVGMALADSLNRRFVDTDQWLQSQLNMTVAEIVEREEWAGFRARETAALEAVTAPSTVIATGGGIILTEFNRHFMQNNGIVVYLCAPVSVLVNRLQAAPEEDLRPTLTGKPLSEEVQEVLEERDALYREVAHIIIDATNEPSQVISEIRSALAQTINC [P0A6E1]
A. 2.62

Q. # iterate: MMKRNILAVIVPALLVAGTANAAEIYNKDGNKVDLYGKAVGLHYFSKGNGENSYGGNGDMTYARLGFKGETQINSDLTGYGQWEYNFQGNNSEGADAQTGNKTRLAFAGLKYADVGSFDYGRNYGVVYDALGYTDMLPEFGGDTAYSDDFFVGRVGGVATYRNSNFFGLVDGLNFAVQYLGKNERDTARRSNGDGVGGSISYEYEGFGIVGAYGAADRTNLQEAQPLGNGKKAEQWATGLKYDANNIYLAANYGETRNATPITNKFTNTSGFANKTQDVLLVAQYQFDFGLRPSIAYTKSKAKDVEGIGDVDLVNYFEVGATYYFNKNMSTYVDYIINQIDSDNKLGVGSDDTVAVGIVYQF
A. 5.98

Q. # iterate: MIIGNIHNLQPWLPQELRQAIEHIKAHVTAETPKGKHDIEGNRLFYLISEDMTEPYEARRAEYHARYLDIQIVLKGQEGMTFSTQPAGAPDTDWLADKDIAFLPEGVDEKTVILNEGDFVVFYPGEVHKPLCAVGAPAQVRKAVVKMLMA [P0AF96]
A. 3.43
